Reference source: patent US20260042747A1

Could you please report measured pIC50 for the items listed next?
# system: recombinant human KIT tyrosine kinase protein (Homo sapiens (Human))
# Sequence (P10721 546-976): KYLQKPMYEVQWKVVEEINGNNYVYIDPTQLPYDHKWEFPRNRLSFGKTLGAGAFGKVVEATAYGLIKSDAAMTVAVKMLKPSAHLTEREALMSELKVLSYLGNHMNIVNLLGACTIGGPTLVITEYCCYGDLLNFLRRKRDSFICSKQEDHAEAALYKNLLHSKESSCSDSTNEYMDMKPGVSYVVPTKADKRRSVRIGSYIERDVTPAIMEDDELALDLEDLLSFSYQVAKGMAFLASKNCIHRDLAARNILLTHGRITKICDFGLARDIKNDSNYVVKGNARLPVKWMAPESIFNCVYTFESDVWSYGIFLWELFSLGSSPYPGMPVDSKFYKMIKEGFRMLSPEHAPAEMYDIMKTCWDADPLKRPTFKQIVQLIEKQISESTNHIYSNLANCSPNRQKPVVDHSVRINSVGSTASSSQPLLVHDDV
# test.name: KIT tyrosine kinase assay (ADP-Glo)
# Type: biochemical
# conditions.used: Table 98
Where a name gives a salt, the structure may show the parent alone.
Lab note: report pIC50 as minus log10 of the concentration in molar units, number only.

What value of measured pIC50 is listed for "Cc1cc(CNC(=O)c2ccc3c(c2)[nH]c(=O)n3C)cnc1Oc1ccc(F)cc1" ? 6.89

Give its pIC50 value. Item: Cn1c(=O)[nH]c2cc(C(=O)NCc3cnc4c(c3)ncn4-c3c(F)cccc3F)ccc21 [Compound 21, trifluoroacetate] 6.18

Find the recorded pIC50 belonging to "Cc1ccc(N(C)c2ccc(CNC(=O)c3ccc4c(c3)[nH]c(=O)n4C)cn2)cn1" and report it. 7.43

Entry "Cn1c(=O)[nH]c2cc(C(=O)NCc3cnc(NC4CCC(F)(F)CC4)s3)ccc21" has what pIC50? 6.44

Name the recorded pIC50 for "CN(CC1CCC(F)(F)CC1)c1ncc(CNC(=O)c2ccc3c(c2)[nH]c(=O)n3C)s1" . 7.23

Item "CN(CC1CC(F)(F)C1)c1ncc(CNC(=O)c2ccc3c(c2)[nH]c(=O)n3C)s1" has what recorded pIC50? 6.57

What value of measured pIC50 is listed for "Cn1c(=O)[nH]c2cc(C(=O)NCc3cnc(Oc4ccc(F)cc4)s3)ccc21" ? 5.49

Which value of pIC50 has been reported for Cn1c(=O)[nH]c2cc(C(=O)NCc3ccc(OC4CCOC(C)(C)C4)nc3)ccc21 (centres unmarked) in the records? 6.26
